# TEST_METHOD_NOTES: recombinant UMI read abundance after kanamycin selection (control-corrected) (log10(CPM+1)); higher = more efficient recombination; extreme values may be limits of the assay; sequences stand for … in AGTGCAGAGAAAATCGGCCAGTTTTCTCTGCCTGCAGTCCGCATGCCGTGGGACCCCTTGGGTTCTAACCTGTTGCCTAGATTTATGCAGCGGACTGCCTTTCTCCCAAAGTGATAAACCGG…AGGTTGGTTTCACT; site = the 11-nt donor
# label = true (1) if recombinant UMI read abundance (log10) >= 0.007 else false (0)

Would you please look over these solved cases?
TCCAGTGCATGGACCGGTTTTCCCGGTAATCCGTATTTGCT (site TCCAGTGCTAG) :: false (0)
GCCCACACATGGACCGGTTTTCCCGGTAATCCGTATTTGTA (site ACCCACACTTA) :: true (1)
GGGCATGCATGGACCGGTTTTCCCGGTAATCCGTATTTGGT (site GGGCATGCTAC) :: true (1)

Q: Tell me whether recombinant UMI read abundance (log10) is at least 0.007 here: CCGAAAGCATGGACCGGTTTTCCCGGTAATCCGTATTTGAT (site CCAAAAGCTAT)
A: true (1)

Q: Tell me whether recombinant UMI read abundance (log10) is at least 0.007 here: CCCATGTCATGGACCGGTTTTCCCGGTAATCCGTATTTGTC (site CCCATCTCTGA)
A: false (0)

---

# TEST_METHOD_NOTES: recombinant UMI read abundance after kanamycin selection (control-corrected) (log10(CPM+1)); higher = more efficient recombination; extreme values may be limits of the assay; sequences stand for … in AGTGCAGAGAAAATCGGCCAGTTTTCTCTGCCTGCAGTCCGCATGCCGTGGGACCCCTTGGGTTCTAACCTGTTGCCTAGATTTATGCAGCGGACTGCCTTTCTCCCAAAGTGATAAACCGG…AGGTTGGTTTCACT; site = the 11-nt donor
Quick list: recombinant UMI read abundance (log10) per entry.
The reply should be a number, written without any unit.

The cases that follow already have their recombinant UMI read abundance (log10) on record.
GGCAAGACATGGACCGGTTTTCCCGGTAATCCGTATTTGCA (site GGCAAGACTTG) :: 2.62
CGAGCATCATGGACCGGTTTTCCCGGTAATCCGTATTTGCT (site CGACCATCTAG) :: 0
CGGGCATCATGGACCGGTTTTCCCGGTAATCCGTATTTGTA (site CGGGCATCTTA) :: 2.38
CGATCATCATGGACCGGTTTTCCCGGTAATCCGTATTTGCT (site CGAGCATCTAG) :: 0
TCGGACCCATGGACCGGTTTTCCCGGTAATCCGTATTTGTT (site TCGGACCCTAA) :: 0.013

Query sequence follows.
Note to self: recombinant UMI read abundance (log10) recorded for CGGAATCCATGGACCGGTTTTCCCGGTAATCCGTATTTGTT (site CGGAAGCCTGA) was 0

---

# TEST_METHOD_NOTES: recombinant UMI read abundance after kanamycin selection (control-corrected) (log10(CPM+1)); higher = more efficient recombination; extreme values may be limits of the assay; sequences stand for … in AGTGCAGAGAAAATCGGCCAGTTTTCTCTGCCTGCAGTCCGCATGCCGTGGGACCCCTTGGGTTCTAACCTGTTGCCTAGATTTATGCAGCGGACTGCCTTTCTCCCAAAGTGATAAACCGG…AGGTTGGTTTCACT; site = the 11-nt donor
# label = yes if recombinant UMI read abundance (log10) >= 1 else no

Would you please look over these solved cases?
CTCAACACATGGACCGGTTTTCCCGGTAATCCGTATTTGCT (site CTCTACACTAG) :: yes
TGGGCCACATGGACCGGTTTTCCCGGTAATCCGTATTTGCA (site TGGGCCACTTG) :: yes
TCCACGCCATGGACCGGTTTTCCCGGTAATCCGTATTTGTA (site CCCACGCCTTA) :: no
TGGTCAACATGGACCGGTTTTCCCGGTAATCCGTATTTGCG (site TGGTCAACTCG) :: no
GGTCCAACATGGACCGGTTTTCCCGGTAATCCGTATTTGCA (site GGTCCAACTTG) :: no

--- query ---
Q: Tell me whether recombinant UMI read abundance (log10) is at least 1 here: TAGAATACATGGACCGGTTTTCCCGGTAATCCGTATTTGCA (site TAGTATACTTG)
A: yes

---

# TEST_METHOD_NOTES: recombinant barcode read abundance after kanamycin selection (control-corrected) (log10(CPM+1)); higher = more efficient recombination; sequences stand for … in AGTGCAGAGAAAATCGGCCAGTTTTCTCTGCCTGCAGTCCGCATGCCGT…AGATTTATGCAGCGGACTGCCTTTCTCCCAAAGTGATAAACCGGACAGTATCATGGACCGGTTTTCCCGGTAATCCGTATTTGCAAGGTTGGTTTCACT; site = the 11-nt target
# label = met if recombinant barcode read abundance (log10) >= 0.3 else not met

Would you please look over these solved cases?
TCTTGACCTTGGGTTCTAACCTGTTGCTT (site TCTTGACCTAA) :: not met
GCACATCCTTGGGTTCTAACCTGTTGCGT (site GCAAATCCTAG) :: not met
ACGCCTCCTTGGGTTCTAACCTGTTGCCA (site ACGCCTCCTTG) :: met
ACGGGGTCTTGGGTTCTAACCTGTTGCCT (site TCGGGGTCTAG) :: met
TGTCGGACTTGGGTTCTAACCTGTTGCAG (site TGTCGGACTTT) :: not met

Q: Tell me whether recombinant barcode read abundance (log10) is at least 0.3 here: TAGGCCACTTGGGTTCTAACCTGTTGCAT (site TAGGCCACTAC)
A: not met

Q: Tell me whether recombinant barcode read abundance (log10) is at least 0.3 here: GTCAGCCCTTGGGTTCTAACCTGTTGCTG (site GTCAGCCCTCA)
A: not met

Q: Tell me whether recombinant barcode read abundance (log10) is at least 0.3 here: CTATTGTCTTGGGTTCTAACCTGTTGCGC (site CTATTGTCTTC)
A: met

Q: Tell me whether recombinant barcode read abundance (log10) is at least 0.3 here: GTGGAGTCTTGGGTTCTAACCTGTTGCCT (site GTGGAGTCTAG)
A: met

Q: Tell me whether recombinant barcode read abundance (log10) is at least 0.3 here: TATAACTCTTGGGTTCTAACCTGTTGCCT (site TATAACTCTAG)
A: met

Q: Tell me whether recombinant barcode read abundance (log10) is at least 0.3 here: GTGTGTACTTGGGTTCTAACCTGTTGCCA (site GTGTGTACTTG)
A: met

Q: Tell me whether recombinant barcode read abundance (log10) is at least 0.3 here: AACTTCCCTTGGGTTCTAACCTGTTGCCT (site AACTTCACTAG)
A: not met

Q: Tell me whether recombinant barcode read abundance (log10) is at least 0.3 here: TTAGGGACTTGGGTTCTAACCTGTTGCCT (site TTAGGGCCTAG)
A: not met

Q: Tell me whether recombinant barcode read abundance (log10) is at least 0.3 here: TAAAATACTTGGGTTCTAACCTGTTGCCT (site TAAAATACTAG)
A: not met

Q: Tell me whether recombinant barcode read abundance (log10) is at least 0.3 here: GTAACCTCTTGGGTTCTAACCTGTTGCCT (site GTAACCTCTTG)
A: not met

Q: Tell me whether recombinant barcode read abundance (log10) is at least 0.3 here: TCCCCGGCTTGGGTTCTAACCTGTTGCCT (site TCCCCGGCTAG)
A: not met

Q: Tell me whether recombinant barcode read abundance (log10) is at least 0.3 here: GATTCACCTTGGGTTCTAACCTGTTGCCT (site GATTCACCTAG)
A: met

---

# TEST_METHOD_NOTES: recombinant barcode read abundance after kanamycin selection (control-corrected) (log10(CPM+1)); higher = more efficient recombination; sequences stand for … in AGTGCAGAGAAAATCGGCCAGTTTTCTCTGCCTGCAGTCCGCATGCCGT…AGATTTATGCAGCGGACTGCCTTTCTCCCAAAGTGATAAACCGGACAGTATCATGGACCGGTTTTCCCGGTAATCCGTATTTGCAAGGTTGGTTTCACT; site = the 11-nt target
# label = true (1) if recombinant barcode read abundance (log10) >= 0.3 else false (0)

TAGTCCTCTTGGGTTCTAACCTGTTGCTG (site TAGTCCTCTTA) :: false (0)

Q: Tell me whether recombinant barcode read abundance (log10) is at least 0.3 here: TAGCACCCTTGGGTTCTAACCTGTTGCCC (site TAGCACCCTTG)
A: false (0)

Q: Tell me whether recombinant barcode read abundance (log10) is at least 0.3 here: CTTCACACTTGGGTTCTAACCTGTTGCAT (site CTTCACACTAT)
A: true (1)

Q: Tell me whether recombinant barcode read abundance (log10) is at least 0.3 here: ACACGAGCTTGGGTTCTAACCTGTTGCAG (site TGCGATACTAA)
A: true (1)
